Parameter: pIC50. Scope: all listed entries.
- Test system: A549
- assay: Cytotoxicity against human A549 cells assessed as reduction in cell viability after 72 hrs by CCK8 assay
- Type: functional, cell-based
- study-conditions: Homo sapiens, A549, 72 h; read-out: IC50
Would you please state pIC50, meaning minus log10 of the concentration in mol/L, as a bare number?

## Task Entry COc1ccccc1/C=c1\c(=O)[nH]/c(=C/c2cccc(Cl)c2Cl)c(=O)n1C has what pIC50?
## Result 6.70

## Task Queued: C=CCn1c(=O)/c(=C\c2cc(F)ccc2C)[nH]c(=O)/c1=C\c1ccccc1OC
## Result 5.31

## Task Queued: C=CCn1c(=O)/c(=C\c2ccccc2Cl)[nH]c(=O)/c1=C\c1ccccc1OC
## Result 5.28

----------
Parameter: IC50. Scope: all listed entries.
- System: MOLT-4
- assay: Cytotoxicity against human MOLT4 cells assessed as reduction in cell viability after 72 hrs by CCK8 assay
- Type: functional, cell-based
- study-conditions: Homo sapiens, MOLT-4, 72 h; read-out: IC50
# output: bare number, implied unit µM

The cases that follow already have their IC50 on record.
C=CCn1c(=O)/c(=C\c2cccc(Cl)c2Cl)[nH]c(=O)/c1=C\c1ccccc1OC    1.2
C=CCn1c(=O)/c(=C\c2ccccc2F)[nH]c(=O)/c1=C\c1ccccc1OC    20

## Task Entry C=CCn1c(=O)/c(=C\c2cc(Br)ccc2F)[nH]c(=O)/c1=C\c1ccccc1OC has what IC50?
## Result 12.9

## Task Queued: C=CCn1c(=O)/c(=C\c2cccc(Cl)c2)[nH]c(=O)/c1=C\c1ccccc1OC
## Result 4.9

## Task Queued: C=CCn1c(=O)/c(=C\c2ccccc2OC)[nH]c(=O)/c1=C\c1ccccc1OC
## Result 13.1

## Task Queued: C=CCn1c(=O)/c(=C\c2cccc(C)c2)[nH]c(=O)/c1=C\c1ccccc1OC
## Result 16

## Task Queued: C=CCn1c(=O)/c(=C\c2cccc(F)c2)[nH]c(=O)/c1=C\c1ccccc1OC
## Result 6.5

## Task Queued: C=CCn1c(=O)/c(=C\c2cccc(Br)c2)[nH]c(=O)/c1=C\c1ccccc1OC
## Result 5

## Task Queued: C=CCn1c(=O)/c(=C\c2ccccc2Cl)[nH]c(=O)/c1=C\c1ccccc1OC
## Result 4.4

## Task Queued: C=CCn1c(=O)/c(=C\c2cc(F)ccc2C)[nH]c(=O)/c1=C\c1ccccc1OC
## Result 3.8

## Task Queued: CC(/C=C/C(=O)NO)=C\[C@@H](C)C(=O)c1ccc(N(C)C)cc1 [TRICHOSTATIN]
## Result 0.03

## Task Queued: C=CCn1c(=O)/c(=C\c2ccccc2C(F)(F)F)[nH]c(=O)/c1=C\c1ccccc1OC
## Result 4.4

----------
- System: MCF7
- assay: Cytotoxicity against human MCF7 cells assessed as reduction in cell viability after 72 hrs by CCK8 assay
- Assay type: functional, cell-based
- study-conditions: Homo sapiens, MCF7, 72 h; read-out: IC50
measurement-name: pIC50
Would you please state pIC50, meaning minus log10 of the concentration in mol/L, as a bare number?

C=CCn1c(=O)/c(=C\c2cccc(Br)c2)[nH]c(=O)/c1=C\c1ccccc1OC    5.27

## Task Entry CC(C)(C)c1[nH]cnc1/C=c1\[nH]c(=O)/c(=C/c2ccccc2)[nH]c1=O has what pIC50?
## Result 8.00

## Task Queued: COc1ccccc1/C=c1\c(=O)[nH]/c(=C/c2cccc(Cl)c2Cl)c(=O)n1C
## Result 6.70

## Task Queued: C=CCn1c(=O)/c(=C\c2ccccc2F)[nH]c(=O)/c1=C\c1ccccc1OC
## Result 4.64

## Task Queued: COc1ccccc1/C=c1\c(=O)[nH]/c(=C/c2ccccc2Cl)c(=O)n1C
## Result 6.70

## Task Queued: C=CCn1c(=O)/c(=C\c2ccccc2C(F)(F)F)[nH]c(=O)/c1=C\c1ccccc1OC
## Result 5.19

## Task Queued: C=CCn1c(=O)/c(=C\c2cccc(Cl)c2)[nH]c(=O)/c1=C\c1ccccc1OC
## Result 5.28
